Target: T1, soluble heterodimeric hCD3ε/δ.mFc protein (human)
T1 construct: also called soluble human CD3; human CD3 heterodimeric protein
T1 sequence (P07766 23-126, stated change not applied, chain 1 of 2): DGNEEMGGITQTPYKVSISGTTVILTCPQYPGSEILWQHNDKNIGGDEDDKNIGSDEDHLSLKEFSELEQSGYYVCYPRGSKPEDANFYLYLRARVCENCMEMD
T1 sequence (P04234 22-105, stated change not applied, chain 2 of 2, further chain): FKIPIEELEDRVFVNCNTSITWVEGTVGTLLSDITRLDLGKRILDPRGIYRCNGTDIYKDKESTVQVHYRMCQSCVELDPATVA
Assay: SPR 37 C, antigen-capture format

>  <Binder>
BSPSMA/CD3-1800 (bispecific antibody) chain 1: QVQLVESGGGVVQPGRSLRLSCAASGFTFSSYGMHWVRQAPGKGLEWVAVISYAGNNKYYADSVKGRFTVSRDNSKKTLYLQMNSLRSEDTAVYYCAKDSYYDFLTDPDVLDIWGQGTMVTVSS chain 2: EVQLVESGGGLVQPGRSLRLSCAASGFTFDDYSMHWVRQAPGKGLEWVSGISWNSGSIGYADSVKGRFTISRDNAKNSLYLQMNSLRAEDTALYYCAKDGSGYGKFYYYGLDVWGQGTTVTVSS chain 3: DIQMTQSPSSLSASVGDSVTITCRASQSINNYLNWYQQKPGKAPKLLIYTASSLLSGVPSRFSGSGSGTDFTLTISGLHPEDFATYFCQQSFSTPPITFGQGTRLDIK

>  <Kd>
> 500 nM

$$$$
